Target: GST-NS1 (Influenza A virus (H3N2)) (UniProt P03495)
Sequence (P03495 whole entry): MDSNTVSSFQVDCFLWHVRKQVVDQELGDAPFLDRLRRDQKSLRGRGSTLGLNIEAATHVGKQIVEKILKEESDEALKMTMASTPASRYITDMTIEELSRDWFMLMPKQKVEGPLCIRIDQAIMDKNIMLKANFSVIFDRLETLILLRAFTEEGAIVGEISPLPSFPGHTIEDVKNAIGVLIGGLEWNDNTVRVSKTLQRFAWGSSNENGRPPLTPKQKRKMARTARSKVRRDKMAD
Test: fluorescence anisotropy
// reported pKd for each item listed
Hey, just a heads up that pKd is the negative log base 10 of the concentration in molar.

{"columns": ["Entry Sequence", "Experimental System", "pKd"],
 "data": [
  ["CCAUCCUCUACAGGCG / CGCCUGUAGAGGAUGG [dsRK1]", "GST-NS1 (Influenza A virus (H3N2)) (UniProt P03495)", 6.77],
  ["GGGGGGGGGGGGGGGGGU [Poly (G)18]", "GST-NS1 (Influenza A virus (H3N2)) (UniProt P03495)", 5.92]
]}

Report pKd for GCUAUCCAGAUUCUGAUU / GAAUCAGAAUCUGGAUAGC [dsCR1] please.
5.62
